Test target: human MCH-2R (Homo sapiens, UniProt Q969V1)
Sequence (Q969V1 whole entry): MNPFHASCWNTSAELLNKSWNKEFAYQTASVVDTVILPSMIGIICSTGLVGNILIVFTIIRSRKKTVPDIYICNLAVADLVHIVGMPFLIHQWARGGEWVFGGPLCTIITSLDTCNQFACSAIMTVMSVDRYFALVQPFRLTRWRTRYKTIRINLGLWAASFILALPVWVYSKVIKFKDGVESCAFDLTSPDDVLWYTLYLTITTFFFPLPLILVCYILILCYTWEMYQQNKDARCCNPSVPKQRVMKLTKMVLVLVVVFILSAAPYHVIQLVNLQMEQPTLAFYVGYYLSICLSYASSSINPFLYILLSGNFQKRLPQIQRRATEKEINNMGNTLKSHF
Protocol text: Aequorin bioluminescence functional assay, MCH-2R agonist activity
Recorded conditions: 293-AEQ17 cells expressing human MCH-2R
Where a SMILES comes first, the peptide text is derived from it. Bridges are numbered along the chain shown (N, C = ends). [ ]: non-standard residue; d: D form. Ava = NCCCCC(=O)O
Property measured: MCH-2R Agonist Activation % (%)
The figure you give is taken to be in %; do not add the unit.

# annotated cases, reported MCH-2R Agonist Activation % shown
CSCC[C@@H]1NC(=O)[C@@H](NC(=O)CCCCNC(=N)N)CSSC[C@@H](C(N)=O)NC(=O)CCCNC(=O)CCCNC(=O)[C@H](Cc2ccc(O)cc2)NC(=O)[C@H](C(C)C)NC(=O)[C@H](CCCNC(=N)N)NC(=O)CNC(=O)[C@H](CC(C)C)NC1=O [SEQ. ID. NO. 13]; 35
CSCC[C@@H]1NC(=O)[C@@H](NC(=O)[C@H](CCCNC(=N)N)NC(C)=O)CSSC[C@@H](C(N)=O)NC(=O)CCCCNC(=O)CCCCNC(=O)[C@H](Cc2ccc(O)cc2)NC(=O)[C@H](C(C)C)NC(=O)[C@H](CCCNC(=N)N)NC(=O)CCCCNC(=O)CCCCNC1=O [SEQ. ID. NO. 30] (Ac-RCM[Ava][Ava]RVY[Ava][Ava]C-NH2; disulfide 2-11 (inferred); C-terminus assumed); 16

Inquiry: So what MCH-2R Agonist Activation % did CC(C)[C@@H]1NC(=O)[C@H](CCCNC(=N)N)NC(=O)CCCCNC(=O)CCCCNC(=O)CCCCNC(=O)[C@@H](NC(=O)CCCCNC(=N)N)CSSC[C@@H](C(N)=O)NC(=O)CCCCNC(=O)CCCCNC(=O)[C@H](Cc2ccc(O)cc2)NC1=O [SEQ. ID. NO. 36] get with human MCH-2R (Homo sapiens, UniProt Q969V1)?
Reply text: 24
